Target: T1, native human MET on living human cells (human, UniProt P08581 25-1390)
T1 construct: whole, on cells; also called Human cells (A549); HPAF-II
T1 sequence (P08581 25-1390): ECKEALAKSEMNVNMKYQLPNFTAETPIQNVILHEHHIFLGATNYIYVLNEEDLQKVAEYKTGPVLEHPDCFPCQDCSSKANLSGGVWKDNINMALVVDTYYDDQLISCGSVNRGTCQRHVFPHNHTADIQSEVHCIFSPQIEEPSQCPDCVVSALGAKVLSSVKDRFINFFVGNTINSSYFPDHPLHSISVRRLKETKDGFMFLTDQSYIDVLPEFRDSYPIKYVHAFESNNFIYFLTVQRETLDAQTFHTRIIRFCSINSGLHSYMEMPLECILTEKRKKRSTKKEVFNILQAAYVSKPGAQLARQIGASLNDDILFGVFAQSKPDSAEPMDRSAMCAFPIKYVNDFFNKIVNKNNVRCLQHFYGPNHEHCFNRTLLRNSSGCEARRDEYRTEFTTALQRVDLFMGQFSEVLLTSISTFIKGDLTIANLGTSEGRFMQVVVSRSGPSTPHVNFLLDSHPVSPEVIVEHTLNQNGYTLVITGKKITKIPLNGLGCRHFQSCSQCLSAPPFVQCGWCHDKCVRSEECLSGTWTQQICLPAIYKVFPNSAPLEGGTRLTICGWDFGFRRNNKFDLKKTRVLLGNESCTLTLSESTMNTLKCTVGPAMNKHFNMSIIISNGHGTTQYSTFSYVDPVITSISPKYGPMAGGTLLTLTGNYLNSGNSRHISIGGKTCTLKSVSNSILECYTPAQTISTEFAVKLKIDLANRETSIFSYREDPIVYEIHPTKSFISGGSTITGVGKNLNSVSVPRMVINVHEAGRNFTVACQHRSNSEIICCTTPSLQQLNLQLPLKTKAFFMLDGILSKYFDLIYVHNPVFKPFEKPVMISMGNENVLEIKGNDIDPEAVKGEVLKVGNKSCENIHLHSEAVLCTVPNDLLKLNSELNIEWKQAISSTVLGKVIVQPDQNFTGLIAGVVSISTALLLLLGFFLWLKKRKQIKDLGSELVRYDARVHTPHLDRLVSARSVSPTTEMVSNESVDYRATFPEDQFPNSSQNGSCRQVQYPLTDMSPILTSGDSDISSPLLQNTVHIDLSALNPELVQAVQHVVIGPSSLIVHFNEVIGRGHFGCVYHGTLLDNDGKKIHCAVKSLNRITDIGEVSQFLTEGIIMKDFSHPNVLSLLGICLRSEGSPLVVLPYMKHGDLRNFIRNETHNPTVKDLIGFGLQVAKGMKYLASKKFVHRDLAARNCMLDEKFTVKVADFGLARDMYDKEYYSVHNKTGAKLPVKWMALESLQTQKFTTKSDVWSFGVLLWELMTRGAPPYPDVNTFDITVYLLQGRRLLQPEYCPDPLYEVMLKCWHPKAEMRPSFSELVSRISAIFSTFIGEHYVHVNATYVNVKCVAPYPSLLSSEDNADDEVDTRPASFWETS
Method: flow cytometry, A549 cells
List of EMAX (% relative to control) values.
Output spec: scalar in %, unitless text.

Binder	Quantity Unit	EMAX (% relative to control)
chimeric llama-human IgG1 mAb 71C3 (antibody, V domains shown) VH: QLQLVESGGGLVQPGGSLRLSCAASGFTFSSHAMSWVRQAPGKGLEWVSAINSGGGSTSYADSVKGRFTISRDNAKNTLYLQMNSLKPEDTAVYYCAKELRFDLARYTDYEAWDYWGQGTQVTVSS VL: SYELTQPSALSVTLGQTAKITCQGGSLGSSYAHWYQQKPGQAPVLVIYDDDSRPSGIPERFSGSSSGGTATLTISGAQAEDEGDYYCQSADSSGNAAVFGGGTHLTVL	%	106

Would you kindly look at the next entry?
Data request: Which EMAX (% relative to control) is listed for chimeric llama-human IgG1 mAb 71D4 (antibody, V domains shown) VH: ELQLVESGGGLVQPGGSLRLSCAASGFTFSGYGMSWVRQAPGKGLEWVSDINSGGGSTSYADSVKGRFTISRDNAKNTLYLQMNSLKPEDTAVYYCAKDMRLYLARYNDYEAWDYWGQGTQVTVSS VL: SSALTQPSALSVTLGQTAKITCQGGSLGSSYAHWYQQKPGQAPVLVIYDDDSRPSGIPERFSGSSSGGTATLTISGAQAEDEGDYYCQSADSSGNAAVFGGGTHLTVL ?
Data returned: 107

Cited source: patent US20210024639A1
